// data source = BigSolDB 2.1

- CONDITION CONTEXT: in isopentanol, 293.15 K

| SMILES TEXT | solubility (mole fraction) |
| --- | --- |
| CC(=O)N[C@@H](C)C(=O)O | 0.0636 |

====

- CONDITION CONTEXT: in acetonitrile, 298.15 K

| SMILES TEXT | solubility (mole fraction) |
| --- | --- |
| CC(=O)N[C@@H](C)C(=O)O | 0.0114 |

====

- CONDITION CONTEXT: in dimethyl carbonate, 293.15 K

| SMILES TEXT | solubility (mole fraction) |
| --- | --- |
| CC(=O)N[C@@H](C)C(=O)O | 0.00319 |

====

- CONDITION CONTEXT: in n-pentanol, 293.15 K

| SMILES TEXT | solubility (mole fraction) |
| --- | --- |
| CC(=O)N[C@@H](C)C(=O)O | 0.0621 |

====

- CONDITION CONTEXT: in dimethyl carbonate, 318.15 K

| SMILES TEXT | solubility (mole fraction) |
| --- | --- |
| CC(=O)N[C@@H](C)C(=O)O | 0.00841 |

====

- CONDITION CONTEXT: in acetone, 318.15 K

| SMILES TEXT | solubility (mole fraction) |
| --- | --- |
| CC(=O)N[C@@H](C)C(=O)O | 0.0819 |

====

- CONDITION CONTEXT: in methyl acetate, 293.15 K

| SMILES TEXT | solubility (mole fraction) |
| --- | --- |
| CC(=O)N[C@@H](C)C(=O)O | 0.00861 |

====

- CONDITION CONTEXT: in isopentanol, 303.15 K
MEASURED ATTRIBUTE: solubility (mole fraction)

| SMILES TEXT | MEASURED ATTRIBUTE | REPORTED RESULT |
| --- | --- | --- |
| CC(=O)N[C@@H](C)C(=O)O | solubility (mole fraction) | 0.0823 |

====

- CONDITION CONTEXT: in isobutanol, 323.15 K

| SMILES TEXT | solubility (mole fraction) |
| --- | --- |
| CC(=O)N[C@@H](C)C(=O)O | 0.145 |

====

- CONDITION CONTEXT: in ethyl acetate, 303.15 K

| SMILES TEXT | solubility (mole fraction) |
| --- | --- |
| CC(=O)N[C@@H](C)C(=O)O | 0.00806 |

====

- CONDITION CONTEXT: in methyl acetate, 288.15 K

| SMILES TEXT | solubility (mole fraction) |
| --- | --- |
| CC(=O)N[C@@H](C)C(=O)O | 0.00705 |

====

- CONDITION CONTEXT: in methyl acetate, 283.15 K

| SMILES TEXT | solubility (mole fraction) |
| --- | --- |
| CC(=O)N[C@@H](C)C(=O)O | 0.00578 |

====

- CONDITION CONTEXT: in n-pentanol, 323.15 K

| SMILES TEXT | solubility (mole fraction) |
| --- | --- |
| CC(=O)N[C@@H](C)C(=O)O | 0.137 |

====

- CONDITION CONTEXT: in sec-butanol, 303.15 K
MEASURED ATTRIBUTE: solubility (mole fraction)

| SMILES TEXT | MEASURED ATTRIBUTE | REPORTED RESULT |
| --- | --- | --- |
| CC(=O)N[C@@H](C)C(=O)O | solubility (mole fraction) | 0.113 |
